target: hMC4-R (human) (UniProt P32245); experiment: cell-based or functional assay
Sequence (P32245 whole entry): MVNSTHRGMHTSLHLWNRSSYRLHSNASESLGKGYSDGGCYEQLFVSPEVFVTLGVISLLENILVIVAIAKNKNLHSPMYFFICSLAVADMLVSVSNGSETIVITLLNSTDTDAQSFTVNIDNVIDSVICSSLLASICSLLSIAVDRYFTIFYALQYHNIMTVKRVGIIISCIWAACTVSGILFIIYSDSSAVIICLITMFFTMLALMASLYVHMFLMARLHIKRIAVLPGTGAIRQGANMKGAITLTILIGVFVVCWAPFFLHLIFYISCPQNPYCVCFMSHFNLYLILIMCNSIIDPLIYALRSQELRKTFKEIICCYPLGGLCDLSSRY
Bridge positions count the residues as written; N and C are the ends. Square brackets hold non-standard residues; d marks the D form. Ends that are not written are not given here. Bta = N[C@@H](Cc1csc2ccccc12)C(=O)O; Pen = CC(C)(S)[C@H](N)C(=O)O; Nle = CCCC[C@H](N)C(=O)O; Ava = NCCCCC(=O)O; GABA = NCCCC(=O)O
Measured cAMP EC50 by item
outcome-measure: cAMP EC50 (nM)

INSERT INTO results (binder, unit_of_measure, result_number) VALUES
  ('Ac-[Nle]CH[dF]RW[GABA][Pen]-NH2 (disulfide 2-8) [Ac-Nle-c(Cys-His-D-Phe-Arg-Trp-Gaba-Pen)-NH2]', 'nM', 0.028),
  ('Ac-RCH[dF]RW[GABA][Pen]-NH2 (disulfide 2-8; SMILES CC(=O)N[C@@H](CCCNC(=N)N)C(=O)N[C@H]1CSSC(C)(C)[C@@H](C(N)=O)NC(=O)CCCNC(=O)[C@H](Cc2c[nH]c3ccccc23)NC(=O)[C@H](CCCNC(=N)N)NC(=O)[C@@H](Cc2ccccc2)NC(=O)[C@H](Cc2c[nH]cn2)NC1=O) [Ac-Arg-c(Cys-His-D-Phe-Arg-Trp-Gaba-Pen)-NH2]', 'nM', 0.719),
  ('Ac-[Nle]CH[dF]RW[Ava]C-NH2 (disulfide 2-8; SMILES CCCC[C@H](NC(C)=O)C(=O)N[C@H]1CSSC[C@@H](C(N)=O)NC(=O)CCCCNC(=O)[C@H](Cc2c[nH]c3ccccc23)NC(=O)[C@H](CCCNC(=N)N)NC(=O)[C@@H](Cc2ccccc2)NC(=O)[C@H](Cc2c[nH]cn2)NC1=O) [Ac-Nle-c(Cys-His-D-Phe-Arg-Trp-Apn-Cys)-NH2]', 'nM', 0.0492),
  ('Ac-[dR]CH[dF]RW[GABA][Pen]-NH2 (disulfide 2-8; SMILES CC(=O)N[C@H](CCCNC(=N)N)C(=O)N[C@H]1CSSC(C)(C)[C@@H](C(N)=O)NC(=O)CCCNC(=O)[C@H](Cc2c[nH]c3ccccc23)NC(=O)[C@H](CCCNC(=N)N)NC(=O)[C@@H](Cc2ccccc2)NC(=O)[C@H](Cc2c[nH]cn2)NC1=O) [Ac-D-Arg-c(Cys-His-D-Phe-Arg-Trp-Gaba-Pen)-NH2]', 'nM', 0.959),
  ('[Nle]CH[dF]RW[GABA]C-NH2 (disulfide 2-8) [Nle-c(Cys-His-D-Phe-Arg-Trp-Gaba-Cys)-NH2]', 'nM', 0.021),
  ('Ac-[Nle]D[dA]H[dF]R[Bta]K-NH2 (lactam 2-8; SMILES CCCC[C@H](NC(C)=O)C(=O)N[C@H]1CC(=O)NCCCC[C@@H](C(N)=O)NC(=O)[C@H](Cc2csc3ccccc23)NC(=O)[C@H](CCCNC(=N)N)NC(=O)[C@@H](Cc2ccccc2)NC(=O)[C@H](Cc2c[nH]cn2)NC(=O)[C@@H](C)NC1=O) [Ac-Nle-c(Asp-D-Ala-His-D-Phe-Arg-Bal-Lys)-NH2]', 'nM', 1.65);

Values were extracted from patent US20120135923A1.
